The measured values listed here are drawn from patent US20230390362A1.

Target: T1, human GIP receptor (human, UniProt P48546 22-466)
T1 sequence (looked up): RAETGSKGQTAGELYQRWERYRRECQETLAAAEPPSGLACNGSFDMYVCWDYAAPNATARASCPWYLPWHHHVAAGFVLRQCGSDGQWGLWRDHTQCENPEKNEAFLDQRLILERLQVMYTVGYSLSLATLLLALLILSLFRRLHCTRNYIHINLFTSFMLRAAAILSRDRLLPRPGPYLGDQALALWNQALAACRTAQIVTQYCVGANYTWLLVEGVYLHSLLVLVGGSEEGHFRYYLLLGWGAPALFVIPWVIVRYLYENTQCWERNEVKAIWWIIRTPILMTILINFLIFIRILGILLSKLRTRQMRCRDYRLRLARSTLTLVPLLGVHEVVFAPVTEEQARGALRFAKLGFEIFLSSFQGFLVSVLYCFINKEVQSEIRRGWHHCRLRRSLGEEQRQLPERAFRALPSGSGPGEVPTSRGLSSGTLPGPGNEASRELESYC
Assay: cell-based or functional assay
Positions of bridges follow the written chain, without caps; N, C: chain ends. Non-standard residues stand in square brackets, D forms with d. No end group written: not given here. *: point of attachment. Acetyl(2-(4-imidazolyl)) = O=C(Cc1c[nH]cn1)*; Aib = CC(C)(N)C(=O)O
Entries and their In vitro activity relative to native peptide (%), vs. GIP (cAMP EC50) values follow.
Give a bare numeral; the unit % is implied.

binder	measurement-unit	readout-number
H[Aib]QGTFTSDYSKYLDEKRQKEFVNWLLAQC (bridge 16-20) [trigonal agonist of SEQ ID NO: 56]	%	0.8

Q: # input binder: Y[Aib]QGTFTSDYSKYLDERACKDFVQWLLDHHPSSGQPPPS (bridge 16-20) [trigonal agonist of SEQ ID NO: 71] ; wanted: its In vitro activity relative to native peptide (%), vs. GIP (cAMP EC50)
Ans: 94.7

Q: Same thing, different binder: {Acetyl(2-(4-imidazolyl))}-[Aib]QGTFTSDYSIAMDEKHCKDFVNWLLNTK (bridge 15-19) [trigonal agonist of SEQ ID NO: 60]
Ans: 8.2

Q: Next entry: Y[Aib]QGTFTSDYSKALDEKAAKEFVQWLLDQHPSSGQPPPSC (bridge 16-20) [trigonal agonist of SEQ ID NO: 100]
Ans: 118
